Test system: Escherichia coli
RUN CONDITIONS: Concentration 32 ug.mL-1; ASSAY_TEST Inhibition of Bacterial Growth; detection method Absorption (OD600); MEDIA CAMHB; plate type 384well; NBS; CORNING #3640; time 18 hr
Description: Antibacterial activity against Escherichia coli ATCC 25922 (CO-ADD:GN_001); MIC in CAMBH media using NBS plates, by OD(600)
Entries with a potency or affinity are not part of this list.
EXPERIMENTAL READOUT: Inhibition (%)
I only need the number, in %, no unit after it.

# annotated cases, reported Inhibition shown
{"columns": ["SMILES TEXT", "UNIT SYMBOL", "TEST VALUE"],
 "data": [
  ["O=[N+]([O-])c1ccc(-c2ccccc2Nc2ccccc2Br)cc1", "%", -1.08],
  ["COc1cc([N+](=O)[O-])ccc1-c1ccccc1Nc1ccccc1", "%", -2.88],
  ["O=[N+]([O-])c1ccc(-c2c(Nc3ccccc3)cccc2-c2ccccc2)cc1", "%", -0.69],
  ["O=[N+]([O-])c1ccc(-c2ccccc2Nc2ccccc2)cc1C(F)(F)F", "%", 4.01],
  ["CC[C@@H](Nc1ccccc1-c1c(Cl)cc(Br)cc1Cl)c1ccccc1", "%", 4.43]
]}

Query compound follows.
INPUT: Check the records and state Inhibition for O=[N+]([O-])c1ccc2c3ccccc3n(-c3ccccc3)c2c1
OUTPUT: -9.21

----------
System: Escherichia coli
RUN CONDITIONS: Concentration 32 ug.mL-1; ASSAY_TEST Inhibition of Bacterial Growth; detection method Absorption (OD600); MEDIA CAMHB; plate type 384well; NBS; CORNING #3640; time 18 hr
Results with a measured potency or affinity are listed apart.
EXPERIMENTAL READOUT: Inhibition (%)
I only need the number, in %, no unit after it.

# annotated cases, reported Inhibition shown
{"columns": ["SMILES TEXT", "TEST VALUE"],
 "data": [
  ["O=[N+]([O-])c1ccc(-c2ccccc2Nc2ccccc2)cc1", 3.34],
  ["Clc1cc(Br)cc(Cl)c1-c1ccccc1Nc1ccccc1", -3.79],
  ["Cc1ccccc1Nc1ccccc1-c1ccc([N+](=O)[O-])cc1", -4.33],
  ["CN(c1ccccc1)c1ccccc1-c1ccc([N+](=O)[O-])cc1", -0.45],
  ["O=[N+]([O-])c1ccc(-c2ccccc2Nc2ccccc2)c(Cl)c1", -8.34],
  ["O=[N+]([O-])c1ccc(-c2ccccc2Nc2ccccc2)cc1F", 3.69],
  ["N#Cc1ccc(-c2ccccc2Nc2ccccc2)cc1", -6.88],
  ["COc1ccc(Nc2ccccc2-c2ccc([N+](=O)[O-])cc2)cc1", -1.45]
]}

Query compound follows.
INPUT: Check the records and state Inhibition for COc1cc([N+](=O)[O-])ccc1-c1c(Nc2ccccc2)cccc1OC
OUTPUT: 7.58

----------
Readings of Inhibition for the listed molecules
Tested on: Escherichia coli
RUN CONDITIONS: Concentration 32 ug.mL-1; ASSAY_TEST Inhibition of Bacterial Growth; detection method Absorption (OD600); MEDIA CAMHB; plate type 384well; NBS; CORNING #3640; time 18 hr
Results with a measured potency or affinity are listed apart.
I only need the number, in %, no unit after it.

{"columns": ["SMILES TEXT", "TEST VALUE"],
 "data": [
  ["Cc1cccc(C)c1Nc1ccccc1-c1ccccc1[N+](=O)[O-]", 4.01],
  ["O=[N+]([O-])c1ccc(-c2cccc3c2[nH]c2ccccc23)cc1", 3.84]
]}

INPUT: Would you please give the reported Inhibition of Cc1cc([N+](=O)[O-])ccc1-c1ccccc1N(C)c1ccccc1 with Escherichia coli?
OUTPUT: 0.54
